Test: gradient 5% acetonitrile 3 min, to 50% in 2 min, to 85% in 15 min, held 3 min, 100 µL/min
Details: column: Zorbax Extend-C18 2.1 x 50 mm; eluents: water / acetonitrile, 0.1% formic acid
Please respond with reported RP-LC retention time for every item in the list.
Quick reminder: number only, in s, skip the unit.

Lookup: Query (molecule): CCNC(=O)c1nc(C(=O)NC2CC2)cs1 ; field requested: RP-LC retention time
Found: 631

Lookup: Param item: Cc1nn(-c2ccccc2)c(C)c1S(=O)(=O)N1CCC(C(=O)NCc2ccccc2)CC1
Found: 886

Lookup: Param item: CC(=O)c1sc(NC(=O)c2ccccc2[N+](=O)[O-])nc1C
Found: 679

Lookup: Param item: CCN1CCN(C(=O)c2nc(-c3ccnc(N4CCCCC4)c3)no2)CC1
Found: 568

Lookup: Param item: CC(C)CCNC(=O)C1(C)CN(S(=O)(=O)c2ccccc2)CC(=O)N1c1cccc(F)c1 (stereo not given)
Found: 953

Lookup: Param item: COCCOC1CCN(C(=O)Nc2ccc3c(c2)OCCO3)CC1
Found: 668

Lookup: Param item: COCCN1C(=O)c2ccccc2C(C(=O)Nc2nc(C)cs2)C12CCCCC2 (stereo not given)
Found: 810

Lookup: Param item: CN(C)C[C@@H]1CN(c2ccncn2)C[C@H]1NC(=O)c1ccc2c(c1)OCO2
Found: 527

Lookup: Param item: CCN1C(=O)Cc2cc(C(=O)NC3CCCCCC3)ccc21
Found: 797

Lookup: Param item: Cc1ccc(-c2noc(Cc3nnc(-c4ccc(C)cc4)o3)n2)cc1
Found: 1120

Lookup: Param item: CC1Oc2ccc(-c3csc(NC(=O)CCc4ccccc4)n3)cc2N(C)C1=O (stereo not given)
Found: 1010

Lookup: Param item: O=C(Cc1cccc(Cl)c1)Nc1cc(-c2ccccn2)no1
Found: 843

Lookup: Param item: CCn1cc(C)c(C(=O)O)c1CC(=O)Nc1ccc(Cl)cn1
Found: 835

Lookup: Param item: CCc1nc(N)n(CC(=O)Nc2ccccc2F)c(=O)c1C
Found: 599

Lookup: Param item: Cc1ccccc1-c1nc(-c2ccc(N3CCSCC3)nc2)no1
Found: 1320

Lookup: Param item: Cc1nn(C)cc1CN1CC(F)(F)C[C@H]1c1nnc(-c2ccccc2)o1
Found: 784

Lookup: Param item: CC1CCN(S(=O)(=O)c2ccc3c(c2)-c2oncc2CO3)CC1
Found: 673

Lookup: Param item: CN1CCC(NC(=O)c2n[nH]c3c2CN(C(=O)c2ccc(F)cc2F)CC3)CC1
Found: 578

Lookup: Param item: Cc1cc2nn(CC(=O)N3CCC(C)CC3)c(=O)n2c(-c2ccc(F)cc2)n1
Found: 816

Lookup: Param item: CC(C)NC(=O)Cn1nc2c3cc(-c4ccc(Cl)cc4)nn3ccn2c1=O
Found: 823
